Form field: interaction score (one value per entry).
TARGET ENTITY: T1, 4H3462-bN
T1 chain: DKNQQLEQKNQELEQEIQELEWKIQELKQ
TEST DETAILS: two-hybrid library CCNG1;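 note: natural log of median RNA to DNA barcode read ratio; higher means stronger binding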

DKNQQLEQEIQELKQKIQELEWKNQELEQ [4H3175-bN] :: -0.773
DKNQQLEQENQELKQEIQELKWKIQELEQ [4H3277-bN] :: -1
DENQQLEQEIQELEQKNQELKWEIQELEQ [4H1081-bN] :: -0.385
DKNQQLEQKNQELEQEIQELEWKIQELKQ [4H3462-bN] :: 0.127
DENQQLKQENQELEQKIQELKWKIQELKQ [4H1710-bN] :: -0.312

The recorded interaction score for entry DKNQQLEQEIQELKQENQELKWEIQELKQ [4H3162-bN] equals 0.241

The recorded interaction score for entry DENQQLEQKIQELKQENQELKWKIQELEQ [4H1373-bN] equals -0.946
